Target: T1, human CAPRIN-1 expressed on the surface of human cancer cells (human, UniProt Q14444 2-709); further: test concentration or dose not given here
T1 sequence: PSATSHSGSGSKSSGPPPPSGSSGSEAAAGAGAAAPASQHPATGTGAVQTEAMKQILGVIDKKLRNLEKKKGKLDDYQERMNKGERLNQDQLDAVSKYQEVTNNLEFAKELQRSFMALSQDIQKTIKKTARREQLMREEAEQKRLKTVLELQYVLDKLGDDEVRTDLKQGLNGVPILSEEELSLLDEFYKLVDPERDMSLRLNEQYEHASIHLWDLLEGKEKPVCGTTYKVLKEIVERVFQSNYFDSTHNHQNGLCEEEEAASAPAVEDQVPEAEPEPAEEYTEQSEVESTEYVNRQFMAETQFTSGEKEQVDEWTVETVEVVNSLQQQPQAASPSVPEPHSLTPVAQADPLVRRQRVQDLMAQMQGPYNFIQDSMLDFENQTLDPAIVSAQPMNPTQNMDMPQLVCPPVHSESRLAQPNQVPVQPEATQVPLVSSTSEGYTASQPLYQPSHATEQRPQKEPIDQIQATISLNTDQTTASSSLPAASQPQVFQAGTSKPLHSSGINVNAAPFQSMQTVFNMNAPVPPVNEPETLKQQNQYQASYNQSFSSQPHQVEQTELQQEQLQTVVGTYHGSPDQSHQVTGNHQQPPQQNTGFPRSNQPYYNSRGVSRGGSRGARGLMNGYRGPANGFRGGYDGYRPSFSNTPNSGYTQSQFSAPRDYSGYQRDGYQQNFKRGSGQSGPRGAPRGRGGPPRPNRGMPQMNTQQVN
Test: cell-based or functional assay
For each entry below, report its ADCC cytotoxic activity (51Cr release) against A549 value.

Param item = human-chicken chimeric monoclonal antibody #1 (antibody, V domains shown) VH: AVTLDESGGGLQTPGGALSLVCKASGFTFRSHSMFWVRQAPGKGLEYVAGIYGVGRSIRYGSAVKGRATMSRDNGQSTVRLQLNNLRAEDTATYYCAKSGYFSNSRYWDSGAYFIDAWGHGTEVIVS VL: ALTQPASVSANPGETVEITCSGGYSNYGWYQQKSPGSAPVTVIYYNDKRPSDIPSRFSGSKSGSTATLTITGVQAEDEAVYFCGGYDSSTDAGIFGAGTTLTV ; retrieve measured ADCC cytotoxic activity (51Cr release) against A549. ≥ 12%

Param item = human-chicken chimeric monoclonal antibody #4 (antibody, V domains shown) VH: AVTLDESGGGLQTPGGAVSLVCKGSGFTFSSYGMGWVRQAPGKGLEYVAAIRKDGSTNYGPAVKGRATISRDNGQSTVRLQLSNLRAEDTATYYCAKRSHTGVNAAKIDAWGRGTEVIVS VL: ALTQPASVSANPGETVKITCSGASHNYGWFQQKSPGSAPVTVIYSNDKRPSDIPSRFSGSKSGSTATLTITGVQADDEAVYFCGGYNIYGPTFGAGTTLTV ; retrieve measured ADCC cytotoxic activity (51Cr release) against A549. ≥ 12%

Param item = human-chicken chimeric monoclonal antibody #3 (antibody, V domains shown) VH: AVTLDESGGGLQTPGGGLSLVCKGSGFTFSSFGMFWVRQAPGKGLEFVASISDNGRSTYYGSAVKGRATISRDDGQSTVRLQLNNLRAEDTGTYYCAKNAYVGRGCCFSYSIDAWGHGTEVIVS VL: ALTQPASVSVNPGETVKITCSGGGSSSDAYGWYQQKSPGSAPVTLIYNGSNRPSHIPSRFSGSTSGSTNTLTITGVQVEDEAIYFCGSTDTSTSVGIFGAGTTLTV ; retrieve measured ADCC cytotoxic activity (51Cr release) against A549. ≥ 12%

Param item = human-chicken chimeric monoclonal antibody #2 (antibody, V domains shown) VH: AVTLDESGGGLQTPGGALSLVCKASGFTFRSHSMFWVRQAPGKGLEYVAGIYGVGRSIRYGSAVKGRATMSRDNGQSTVRLQLNNLRAEDTGTYYCAKSGYFSNRRYWDSGAYFIDAWGHGTEVIVS VL: ALTQPASVSANLGGTVEITCSGGYSNYGWYQQKSPGSAPVTVIYYNDKRPSDIPSRFSGSKSGSTGTLTITGVRAEDEAVYYCGGYDSSTDAGIFGAGTTLTV ; retrieve measured ADCC cytotoxic activity (51Cr release) against A549. ≥ 12%
